Where these numbers come from: ChEMBL document CHEMBL2384955

Test system: Lipid bilayer
Assay: Binding affinity to DOPC/DOPG large unilamellar vesicle assessed as release of calcein at 1 mg/mL measured for 1 min by spectrophotometric analysis
The source made the active and inactive calls. The rule behind the calls is not given here.
Entry note: the call must match one of active, inactive

Below are worked cases with known answers.
[[record]]
structure_smiles_string = "CC(C)[C@@H](CC[C@@H](C)[C@H]1CC[C@H]2[C@@H]3[C@@H](O)C[C@H]4C[C@@H](NCCCNCCCCN)CC[C@]4(C)[C@H]3CC[C@]12C)OS(=O)(=O)O.O=C(O)C(F)(F)F"
tgt = "Lipid bilayer"
label_class = "inactive"

[[record]]
structure_smiles_string = "CC(C)[C@@H](CC[C@@H](C)[C@H]1CC[C@H]2[C@@H]3[C@H](O)C[C@H]4C[C@@H](NCCCNCCCCN)CC[C@]4(C)[C@H]3CC[C@]12C)OS(=O)(=O)O.CC(O)C(=O)O"
tgt = "Lipid bilayer"
label_class = "active"

[[record]]
structure_smiles_string = "CC(C)[C@@H](CC[C@@H](C)[C@H]1CC[C@H]2[C@@H]3[C@H](O)C[C@H]4C[C@@H](NCCCNCCCCNCCCN)CC[C@]4(C)[C@H]3CC[C@]12C)OS(=O)(=O)O.Cl"
tgt = "Lipid bilayer"
label_class = "active"


Hi team, can someone confirm the assay call for CC(C)[C@@H](CC[C@@H](C)[C@H]1CC[C@H]2[C@@H]3[C@@H](O)C[C@H]4C[C@@H](NCCCNCCCCNCCCN)CC[C@]4(C)[C@H]3CC[C@]12C)OS(=O)(=O)O.O=C(O)C(F)(F)F ?
inactive

* * *

Test system: Lipid bilayer
Assay: Binding affinity to DOPG large unilamellar vesicle assessed as release of calcein at 1 mg/mL measured for 1 min by spectrophotometric analysis
Active and inactive are the calls of the source. No cut-off for these calls is given here.
Entry note: the call must match one of Yes (active), No (inactive)

Below are worked cases with known answers.
[[record]]
structure_smiles_string = "CC(C)[C@@H](CC[C@@H](C)[C@H]1CC[C@H]2[C@@H]3[C@H](O)C[C@H]4C[C@@H](NCCCNCCCCNCCCN)CC[C@]4(C)[C@H]3CC[C@]12C)OS(=O)(=O)O.Cl"
label_class = "Yes"

[[record]]
structure_smiles_string = "CC(C)[C@@H](CC[C@@H](C)[C@H]1CC[C@H]2[C@@H]3[C@H](O)C[C@H]4C[C@@H](NCCCNCCCCN)CC[C@]4(C)[C@H]3CC[C@]12C)OS(=O)(=O)O.CC(O)C(=O)O"
label_class = "Yes"

[[record]]
structure_smiles_string = "CC(C)[C@@H](CC[C@@H](C)[C@H]1CC[C@H]2[C@@H]3[C@@H](O)C[C@H]4C[C@@H](NCCCNCCCCN)CC[C@]4(C)[C@H]3CC[C@]12C)OS(=O)(=O)O.O=C(O)C(F)(F)F"
label_class = "No"


Hi team, can someone confirm the assay call for CC(C)[C@@H](CC[C@@H](C)[C@H]1CC[C@H]2[C@@H]3[C@@H](O)C[C@H]4C[C@@H](NCCCNCCCCNCCCN)CC[C@]4(C)[C@H]3CC[C@]12C)OS(=O)(=O)O.O=C(O)C(F)(F)F ?
Yes

* * *

System: Lipid bilayer
Test: Binding affinity to zwitterionic DOPC large unilamellar vesicle assessed as release of calcein at 1 mg/mL measured for 1 min by spectrophotometric analysis relative to control
Please respond with reported Activity for every item in the list.

[[record]]
structure_smiles_string = "CC(C)[C@@H](CC[C@@H](C)[C@H]1CC[C@H]2[C@@H]3[C@@H](O)C[C@H]4C[C@@H](NCCCNCCCCNCCCN)CC[C@]4(C)[C@H]3CC[C@]12C)OS(=O)(=O)O.O=C(O)C(F)(F)F"
observed_measurement = "50%"


Hi team, please reply with Activity for each item in this list.
1. CC(C)[C@@H](CC[C@@H](C)[C@H]1CC[C@H]2[C@@H]3[C@H](O)C[C@H]4C[C@@H](NCCCNCCCCN)CC[C@]4(C)[C@H]3CC[C@]12C)OS(=O)(=O)O.CC(O)C(=O)O
2. CC(C)[C@@H](CC[C@@H](C)[C@H]1CC[C@H]2[C@@H]3[C@H](O)C[C@H]4C[C@@H](NCCCNCCCCNCCCN)CC[C@]4(C)[C@H]3CC[C@]12C)OS(=O)(=O)O.Cl

1: 50%; 2: 50%
